# Tested on: biotinyl-Trp-oxazolone
# TEST: self-aminoacylation, catalytic enhancement (BWO) (fold over background); higher = more active; k-Seq, kA / k0A0; sequences stand for … in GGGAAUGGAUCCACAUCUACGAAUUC…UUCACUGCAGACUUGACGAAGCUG
This sample holds only a part of the variants without activity.
Listed next: entries and their corresponding self-aminoacylation.
RESULT TYPE: self-aminoacylation

[[record]]
chain = "GGUCACCUAGGUCAUCGGGUG [Fam2.2 aminoacylation ribozyme variant]"
reported_measurement = 6.88

[[record]]
chain = "CUACUUCAAACAAUCGGUGAG [Fam1A.1 aminoacylation ribozyme variant]"
reported_measurement = 0.907

[[record]]
chain = "CCAGACUUCAAGCAACCGGUC [Fam1B.1 aminoacylation ribozyme variant]"
reported_measurement = 2

[[record]]
chain = "AUUUCUCUGGUCAUCGAGUGA [Fam2.1 aminoacylation ribozyme variant]"
reported_measurement = 7.1

[[record]]
chain = "CUACUUACAACAAUCGGUCUG [Fam1A.1 aminoacylation ribozyme variant]"
reported_measurement = 2.34

[[record]]
chain = "AUUACCCUUGCCAUCGAGUGA [Fam2.1 aminoacylation ribozyme variant]"
reported_measurement = 7.05

[[record]]
chain = "CCACACUCGAAGCAAUCGGUC [Fam1B.1 aminoacylation ribozyme variant]"
reported_measurement = 0.864

[[record]]
chain = "AAGUUUGCUAAUAUUCGCAUG [Fam3.1 aminoacylation ribozyme variant]"
reported_measurement = 0.844

[[record]]
chain = "AAGUUUCCUAAUAGUCGCACG [Fam3.1 aminoacylation ribozyme variant]"
reported_measurement = 2.23


* * *

# Test system: biotinyl-Leu-oxazolone
# TEST: self-aminoacylation, catalytic enhancement (BLO) (fold over background); higher = more active; k-Seq, kA / k0A0; sequences stand for … in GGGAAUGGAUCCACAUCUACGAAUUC…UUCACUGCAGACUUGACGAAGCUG
Variants at the floor of the assay were thinned out.
Record 1.0 whenever self-aminoacylation is at 2 or higher; record 0.0 when lower.

[[record]]
chain = "AGUACCCUGGUCAUCGGGUGA [Fam2.1 aminoacylation ribozyme variant]"
answer_label = 1.0

[[record]]
chain = "AUUCCCCCAGGUCAUCGGGUG [Fam2.2 aminoacylation ribozyme variant]"
answer_label = 1.0

[[record]]
chain = "AUUAACCUAGGUAAUCGGGUG [Fam2.2 aminoacylation ribozyme variant]"
answer_label = 1.0

[[record]]
chain = "AUUACCCUGGUCAUCGACUGU [Fam2.1 aminoacylation ribozyme variant]"
answer_label = 0.0

[[record]]
chain = "CUACUUCAAACAACCGGCCUG [Fam1A.1 aminoacylation ribozyme variant]"
answer_label = 0.0

[[record]]
chain = "CCACACCUCAAGCAAUUGGUC [Fam1B.1 aminoacylation ribozyme variant]"
answer_label = 0.0

[[record]]
chain = "ACUACCCUGGUCAUGGAGUGA [Fam2.1 aminoacylation ribozyme variant]"
answer_label = 1.0

[[record]]
chain = "AAGUUUGCUAAUAGUCGUCAG [Fam3.1 aminoacylation ribozyme variant]"
answer_label = 0.0

[[record]]
chain = "AUUCACCUAGGUCGUCGGAUG [Fam2.2 aminoacylation ribozyme variant]"
answer_label = 0.0

[[record]]
chain = "AAGUUUUCUAAUAGUCGCCAG [Fam3.1 aminoacylation ribozyme variant]"
answer_label = 0.0

[[record]]
chain = "CUACUUCAAACAAUCAGGCUG [Fam1A.1 aminoacylation ribozyme variant]"
answer_label = 0.0

[[record]]
chain = "AUUCCCCUAGGUCUUCGGGUG [Fam2.2 aminoacylation ribozyme variant]"
answer_label = 1.0

[[record]]
chain = "AAUUUUGCUAAUAGUCGGAAG [Fam3.1 aminoacylation ribozyme variant]"
answer_label = 0.0

[[record]]
chain = "CUACUUCAAACAAUCAGUCUC [Fam1A.1 aminoacylation ribozyme variant]"
answer_label = 0.0

[[record]]
chain = "AAGUUUUCUAAUAGUCGCAGG [Fam3.1 aminoacylation ribozyme variant]"
answer_label = 0.0

[[record]]
chain = "AUUACUCUGCUCAUCGAGUGA [Fam2.1 aminoacylation ribozyme variant]"
answer_label = 0.0

[[record]]
chain = "AUUACCACGGUCAUCGAGUGA [Fam2.1 aminoacylation ribozyme variant]"
answer_label = 1.0

[[record]]
chain = "AUAACCCAGGUCAUCGAGUGA [Fam2.1 aminoacylation ribozyme variant]"
answer_label = 1.0


* * *

# System: biotinyl-Phe-oxazolone
# TEST: self-aminoacylation, catalytic enhancement (BFO) (fold over background); higher = more active; k-Seq, kA / k0A0; sequences stand for … in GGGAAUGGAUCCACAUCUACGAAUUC…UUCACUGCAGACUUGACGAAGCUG
Variants at the floor of the assay were thinned out.
RESULT TYPE: self-aminoacylation

[[record]]
chain = "CCACACUUCAAGCAAUCAUUC [Fam1B.1 aminoacylation ribozyme variant]"
result_type = "self-aminoacylation"
reported_measurement = 1.64

[[record]]
chain = "CAACAGUUCAAGCAAUCGGUC [Fam1B.1 aminoacylation ribozyme variant]"
result_type = "self-aminoacylation"
reported_measurement = 4.54

[[record]]
chain = "CUACUUUAAACAGUCGGUCUG [Fam1A.1 aminoacylation ribozyme variant]"
result_type = "self-aminoacylation"
reported_measurement = 0.582

[[record]]
chain = "AAGUUUGCUAAUACACGCAAG [Fam3.1 aminoacylation ribozyme variant]"
result_type = "self-aminoacylation"
reported_measurement = 1.19

[[record]]
chain = "GUUCACCUAGGUCAGCGGGUG [Fam2.2 aminoacylation ribozyme variant]"
result_type = "self-aminoacylation"
reported_measurement = 26.1

[[record]]
chain = "CUUCUUCAAACACUCGGUCUG [Fam1A.1 aminoacylation ribozyme variant]"
result_type = "self-aminoacylation"
reported_measurement = 0.651

[[record]]
chain = "UUUCACCUAGGUCAUAGGGUG [Fam2.2 aminoacylation ribozyme variant]"
result_type = "self-aminoacylation"
reported_measurement = 1.69

[[record]]
chain = "CUACACUUCAAUCAAUCGGUC [Fam1B.1 aminoacylation ribozyme variant]"
result_type = "self-aminoacylation"
reported_measurement = 37.4


* * *

# Tested on: biotinyl-Val-oxazolone
# TEST: self-aminoacylation, catalytic enhancement (BVO) (fold over background); higher = more active; k-Seq, kA / k0A0; sequences stand for … in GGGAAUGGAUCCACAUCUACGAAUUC…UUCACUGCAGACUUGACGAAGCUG
This sample holds only a part of the variants without activity.
RESULT TYPE: self-aminoacylation

[[record]]
chain = "AUUCCCCUGGUCAUAGAGUGA [Fam2.1 aminoacylation ribozyme variant]"
result_type = "self-aminoacylation"
reported_measurement = 5.89

[[record]]
chain = "AAGUUAGCUCAUAGUCGCAAG [Fam3.1 aminoacylation ribozyme variant]"
result_type = "self-aminoacylation"
reported_measurement = 1.61

[[record]]
chain = "AUUACCCUCGUCAUCGCGUGA [Fam2.1 aminoacylation ribozyme variant]"
result_type = "self-aminoacylation"
reported_measurement = 4.02

[[record]]
chain = "ACUAACCUGGUCAUCGAGUGA [Fam2.1 aminoacylation ribozyme variant]"
result_type = "self-aminoacylation"
reported_measurement = 2.91

[[record]]
chain = "UUUACCCUGAUCAUCGAGUGA [Fam2.1 aminoacylation ribozyme variant]"
result_type = "self-aminoacylation"
reported_measurement = 4.05

[[record]]
chain = "CCACUUCAAACCAUCGGUCUG [Fam1A.1 aminoacylation ribozyme variant]"
result_type = "self-aminoacylation"
reported_measurement = 1.29

[[record]]
chain = "AUUACCCUGGUCAUCGAGGGA [Fam2.1 aminoacylation ribozyme variant]"
result_type = "self-aminoacylation"
reported_measurement = 2.99

[[record]]
chain = "CCACACUCCAAGCAAUCAGUC [Fam1B.1 aminoacylation ribozyme variant]"
result_type = "self-aminoacylation"
reported_measurement = 0.911

[[record]]
chain = "AUUACCCUGGUCAUUGAGGGA [Fam2.1 aminoacylation ribozyme variant]"
result_type = "self-aminoacylation"
reported_measurement = 1.51

[[record]]
chain = "UCCCACUUCAAGCAAUCGGUC [Fam1B.1 aminoacylation ribozyme variant]"
result_type = "self-aminoacylation"
reported_measurement = 1.73

[[record]]
chain = "CUACUACAAACAAUCUGUCUG [Fam1A.1 aminoacylation ribozyme variant]"
result_type = "self-aminoacylation"
reported_measurement = 0.835

[[record]]
chain = "AAGCUUGCUAAUAGUCGCACG [Fam3.1 aminoacylation ribozyme variant]"
result_type = "self-aminoacylation"
reported_measurement = 1.76

[[record]]
chain = "AUUCCCCUUGGUCAUCGGGUG [Fam2.2 aminoacylation ribozyme variant]"
result_type = "self-aminoacylation"
reported_measurement = 13.7

[[record]]
chain = "AAGUUUGCUAAUAGGCCCAAG [Fam3.1 aminoacylation ribozyme variant]"
result_type = "self-aminoacylation"
reported_measurement = 1.23

[[record]]
chain = "AUUCACGUAGGUCAUCUGGUG [Fam2.2 aminoacylation ribozyme variant]"
result_type = "self-aminoacylation"
reported_measurement = 3.61

[[record]]
chain = "AUAUCCCUGGUCAUCGAGUGA [Fam2.1 aminoacylation ribozyme variant]"
result_type = "self-aminoacylation"
reported_measurement = 5.25

[[record]]
chain = "GAGUUCGCUAAUAGUCGCAAG [Fam3.1 aminoacylation ribozyme variant]"
result_type = "self-aminoacylation"
reported_measurement = 2.52

[[record]]
chain = "AUUACCCUGGACAUCGAGGGA [Fam2.1 aminoacylation ribozyme variant]"
result_type = "self-aminoacylation"
reported_measurement = 1.19

